- System: tTALE-eGFP (truncated TALE, 7-mer TGTCTGT repeat domain, fused to eGFP) (artificial construct (from TALEN plasmid RHD_Exon4_TALEN_L))
- Procedure Summary: FRET
- Measurement Setup: FRET: TE pH 8.0, 100 nM dsDNA, 10-100 nM tTALE-eGFP for Kd; NaCl series 0-200 mM at 30 nM protein; excitation 488 nm, emission 631 nm; temperature not stated
Readout Kind: pKd
Remember, pKd is on a log scale: it is -log10 of the molar concentration.

Recorded pKd for TGTCTGTATG (double strand) [target DNA] , please?
7.57

Where do these numbers come from? They come from paper PMC6868158.
